measured-target: OsWOX13 (Oryza sativa, UniProt Q5QMM3 1-267)
Sequence: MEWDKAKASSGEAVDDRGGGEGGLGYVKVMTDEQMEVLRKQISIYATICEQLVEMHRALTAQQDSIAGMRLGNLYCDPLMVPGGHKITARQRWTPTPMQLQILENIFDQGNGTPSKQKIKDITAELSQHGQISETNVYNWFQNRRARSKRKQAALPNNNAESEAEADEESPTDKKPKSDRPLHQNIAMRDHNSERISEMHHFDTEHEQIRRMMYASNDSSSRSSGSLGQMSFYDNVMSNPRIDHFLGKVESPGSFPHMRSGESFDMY
experiment-notes: protein-binding microarray (RPBM); PBS, 2% BSA, 51.3 ng/ul salmon testes DNA, 50 uM zinc acetate, 200 nM TF, 25 C, 1 h; high values mean tight binding
experimental-setup: protein: recombinant; tags: N-terminal polyhistidine and DsRed monomer fusion (pET32a); label: CyDye5-dUTP incorporated in the synthesized complementary strand; 3' TTTTT single-stranded linker to array surface; dsDNA, one strand shown
Over roughly 35,000 sequences, “fluorescence intensity (a.u.)” has its median near 10,000; the highest 2% begin near 52,000. The sample as a whole holds a higher share of the highest values than the screen did.
Entries and their binding signal

Entry under review: TGGTCCTTTACATTGCAATTAATTTGTTTGGAATTTATTACGGAGTCACCTAGTGCAG . Reported binding signal? 8240 fluorescence intensity (a.u.)

Entry under review: AGGAAAATGTGGTGAGTAATTAGGTTATAATTTATTGAGTCGGAGTCACCTAGTGCAG . Reported binding signal? 4100 fluorescence intensity (a.u.)

Entry under review: CATCCTCATTAACGGCAGATTAATACTATTTAGTCCATCTCGGAGTCACCTAGTGCAG . Reported binding signal? 3220 fluorescence intensity (a.u.)

Entry under review: ACCCCGAGCTGATTATCTCTGAACGTACGATCAAGCCGTCCGGAGTCACCTAGTGCAG . Reported binding signal? 6180 fluorescence intensity (a.u.)

Entry under review: AATAAATCTATAATTTTATGATATTATGACTTAAATCTATCGGAGTCACCTAGTGCAG . Reported binding signal? 4790 fluorescence intensity (a.u.)

Entry under review: TTTTCTTTCTTGATTGGGAAGGAAATTGGTGGTTAATCTCCGGAGTCACCTAGTGCAG . Reported binding signal? 23700 fluorescence intensity (a.u.)
